EXPERIMENTAL SYSTEM: Neuronal acetylcholine receptor; alpha9/alpha10 (Homo sapiens, UniProt Q9GZZ6+Q9UGM1)
Sequence (Q9UGM1 whole entry): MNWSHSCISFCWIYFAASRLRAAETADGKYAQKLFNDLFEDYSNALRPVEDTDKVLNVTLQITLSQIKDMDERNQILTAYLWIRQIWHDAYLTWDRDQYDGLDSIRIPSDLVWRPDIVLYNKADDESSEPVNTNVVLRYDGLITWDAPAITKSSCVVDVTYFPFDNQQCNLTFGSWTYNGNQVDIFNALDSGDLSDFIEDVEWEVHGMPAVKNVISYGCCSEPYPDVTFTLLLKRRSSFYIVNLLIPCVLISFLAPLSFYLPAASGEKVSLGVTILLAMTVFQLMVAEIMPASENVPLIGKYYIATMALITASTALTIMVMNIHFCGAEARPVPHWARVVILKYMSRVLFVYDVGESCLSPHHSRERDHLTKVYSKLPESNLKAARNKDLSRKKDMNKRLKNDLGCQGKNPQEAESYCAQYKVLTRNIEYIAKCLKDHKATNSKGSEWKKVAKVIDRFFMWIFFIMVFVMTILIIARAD
Sequence (Q9GZZ6 whole entry): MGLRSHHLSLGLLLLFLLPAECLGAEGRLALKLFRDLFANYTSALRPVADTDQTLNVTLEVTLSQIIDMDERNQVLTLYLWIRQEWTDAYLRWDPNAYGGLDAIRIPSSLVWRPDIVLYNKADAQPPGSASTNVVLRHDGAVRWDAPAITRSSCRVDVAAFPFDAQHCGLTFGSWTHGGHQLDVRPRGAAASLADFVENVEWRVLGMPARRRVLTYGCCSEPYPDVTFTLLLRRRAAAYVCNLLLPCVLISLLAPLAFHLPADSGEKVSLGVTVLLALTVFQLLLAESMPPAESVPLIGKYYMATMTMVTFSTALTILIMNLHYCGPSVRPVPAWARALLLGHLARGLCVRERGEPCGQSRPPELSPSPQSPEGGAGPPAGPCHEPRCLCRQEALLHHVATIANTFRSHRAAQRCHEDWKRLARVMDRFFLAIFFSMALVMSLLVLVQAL
ASSAY NOTES: Inhibition of human alpha9alpha10 nAChR expressed in xenopus oocytes assessed as inhibition of Ach- induced response at -70 mV holding potential and measured for 1 to 5 days in presence of Ach stimulation by voltage-clamp based electrophysiological method
MEASUREMENT KIND: IC50

- C[C@@H](O)[C@@H]1NC(=O)[C@H]2NC(=O)[C@H](NC(=O)CN)CSSC[C@H](NC(=O)[C@H](CCCNC(=N)N)NC(=O)[C@@H]3CCCN3C(=O)[C@H](CC(=O)O)NC1=O)C(=O)N[C@@H](CCCNC(=N)N)C(=O)N[C@@H](Cc1ccc(O)c(I)c1)C(=O)N[C@@H](CCCN)C(=O)N[C@H](C(=O)N[C@H](CC(=O)N[C@H](CCCNC(=N)N)C(=O)O)Cc1ccc(O)cc1)CSSC2(C)C: 4 nM
- C[C@@H](O)[C@@H]1NC(=O)[C@H]2NC(=O)[C@H](NC(=O)CN)CSSC[C@H](NC(=O)[C@H](CCCNC(=N)N)NC(=O)[C@@H]3CCCN3C(=O)[C@H](CC(=O)O)NC1=O)C(=O)N[C@@H](CCCNC(=N)N)C(=O)N[C@@H](Cc1ccc(O)c(I)c1)C(=O)N[C@@H](CCCN)C(=O)N[C@H](C(=O)N[C@H](CC(=O)N[C@@H](CCCNC(=N)N)C(=O)O)Cc1ccc(O)cc1)CSSC2(C)C: 0.05 nM
- C[C@@H](O)[C@@H]1NC(=O)[C@@H]2CSSC[C@@H](C(=O)N[C@@H](Cc3ccc(O)cc3)C(=O)O)NC(=O)[C@H](CCC(N)=O)NC(=O)[C@H](Cc3ccc(O)c(I)c3)NC(=O)[C@H](CCCNC(N)=O)NC(=O)[C@@H](NC(=O)[C@H](CCCNC(=N)N)NC(=O)[C@@H]3CCCN3C(=O)[C@H](CC(=O)O)NC1=O)C(C)(C)SSC[C@@H](NC(=O)CN)C(=O)N2: > 1000 nM
